# Study target: Steryl-sulfatase (Homo sapiens) (UniProt P08842)
# Sequence (whole entry): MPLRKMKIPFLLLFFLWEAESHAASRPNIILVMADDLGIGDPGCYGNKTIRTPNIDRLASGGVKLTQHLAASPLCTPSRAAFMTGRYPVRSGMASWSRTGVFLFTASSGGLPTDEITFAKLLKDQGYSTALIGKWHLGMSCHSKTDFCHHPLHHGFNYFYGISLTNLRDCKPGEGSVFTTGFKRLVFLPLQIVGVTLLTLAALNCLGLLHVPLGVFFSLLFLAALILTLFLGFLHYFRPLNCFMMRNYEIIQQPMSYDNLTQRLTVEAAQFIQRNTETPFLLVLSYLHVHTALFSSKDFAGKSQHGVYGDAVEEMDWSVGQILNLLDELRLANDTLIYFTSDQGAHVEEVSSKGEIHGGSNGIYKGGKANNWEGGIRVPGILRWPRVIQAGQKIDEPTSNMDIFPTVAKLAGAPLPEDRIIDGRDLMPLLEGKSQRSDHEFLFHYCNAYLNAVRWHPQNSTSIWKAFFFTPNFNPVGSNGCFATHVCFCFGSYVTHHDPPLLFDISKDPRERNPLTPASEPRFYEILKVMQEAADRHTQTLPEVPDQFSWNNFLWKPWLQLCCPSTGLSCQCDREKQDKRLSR
# Assay procedure: Inhibition of STS (unknown origin) expressed in HEK-293 cells assessed as transformation of [3H]-E1S into E1 at 1 uM by […]
# Format: cell-based
# Setup conditions: HEK293
Quantity: inhibition (%)

Below, 2 compounds whose answers are already recorded.
chem_smiles=CCCN(CCC)c1ccc(C(=O)N2CCc3ccc(OS(N)(=O)=O)cc3C2)cc1 quantitative_result=84.7
chem_smiles=CCN(Cc1ccccc1)c1ccc(C(=O)N2CCc3ccc(OS(N)(=O)=O)cc3C2)cc1 quantitative_result=83.6

I = NS(=O)(=O)Oc1ccc2c(c1)CN(C(=O)c1ccc(N3CCCCC3)cc1)CC2
II = NS(=O)(=O)Oc1ccc2c(c1)CN(C(=O)c1ccc(N3CCSCC3)cc1)CC2
III = CN(C)CCN(CCN(C)C)c1ccc(C(=O)N2CCc3ccc(OS(N)(=O)=O)cc3C2)cc1
Put the compounds in ascending order of inhibition. To answer, arrange all of the labels according to the requested order.
III, I, II
(III: 15.9%, I: 38.3%, II: 80.2%)
